Data credit: PubChem BioAssay AID1159580

# measurement_protocol: chemical genetic growth profiling, strain panel (AID 1159580);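 note: tested at 20 µM; growth read once vehicle control cultures reached saturation at 30 °C; 1 = growth at the plate median or of vehicle wells; lower values mean less growth of the strain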
# experimental_setup: S. cerevisiae deletion strains, growth OD, locus YOR069W, strain VPS5, active compounds read low
Out of some 5,500 compounds screened, about 2,000 (36%) were called active. Roughly 18% stayed inconclusive and do not appear here. The list shows a part of the results. Where a SMILES comes first, the peptide text is derived from it. [ ]: non-standard residue; d: D form. Orn = NCCC[CH](N)C(=O)O
result_type: normalized growth

Illustrative cases are given below, each with its answer.
[
  {
    "compound": "COc1c2occc2c(OC)c2c(=O)cc(C)oc12",
    "normalized growth": "1 (inactive)"
  },
  {
    "compound": "NC[C@H]1O[C@H](O[C@H]2[C@H](O)[C@@H](O[C@H]3O[C@H](CO)[C@@H](O)[C@H](N)[C@H]3O)[C@H](N)C[C@@H]2N)[C@H](N)C[C@@H]1O",
    "normalized growth": "1.01 (inactive)"
  },
  {
    "compound": "CCOC([O-])=Nc1c[n+](N2CCOCC2)no1",
    "normalized growth": "1.01 (inactive)"
  },
  {
    "compound": "COc1c2ccoc2cc2oc(C)cc(=O)c12",
    "normalized growth": "0.993 (inactive)"
  },
  {
    "compound": "CN[C@@H]1[C@@H](O[C@H]2O[C@H](CO)[C@@H](N)[C@H](O)[C@H]2O)O[C@H]2C[C@@H](N)[C@H](O[C@H]3[C@H](O)[C@@H](O)[C@H](N)C[C@@H]3N)O[C@@H]2[C@@H]1O",
    "normalized growth": "1 (inactive)"
  }
]

Provide normalized growth for all items below, preserving their order.
1. CC(C)CC1NC(=O)C(CCCN)NC(=O)C(C(C)C)NC(=O)C2CCCN2C(=O)C(Cc2ccccc2)NC(=O)C(CC(C)C)NC(=O)C(CCCN)NC(=O)C(C(C)C)NC(=O)C2CCCN2C(=O)C(Cc2ccccc2)NC1=O (centres undefined) (cyclo(FPV[Orn]LFPV[Orn]L); configuration not given here)
2. COc1ccc2c(=O)ccoc2c1

1 (inactive)
1.01 (inactive)

Batch lookup, normalized growth per entry.
1. NC[C@H]1O[C@H](O[C@H]2C(O[C@@H]3O[C@H](CO)[C@@H](O)[C@H]3O)[C@@H](O)[C@H](N)C[C@@H]2N)[C@H](N)[C@@H](O)[C@@H]1O (some centres undefined)
2. NC(N)=NC(N)=Nc1ccccc1

["0.988 (inactive)", "1.01 (inactive)"]

---

# measurement_protocol: chemical genetic growth profiling, strain panel (AID 1159580);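 note: tested at 20 µM; growth read once vehicle control cultures reached saturation at 30 °C; 1 = growth at the plate median or of vehicle wells; lower values mean less growth of the strain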
# experimental_setup: S. cerevisiae deletion strains, growth OD, locus YPL240C, strain hsp82, active compounds read low
Out of some 5,500 compounds screened, about 2,000 (36%) were called active. Inconclusive results (about 18%) are left out. The list shows a part of the results.
result_type: normalized growth

[
  {
    "molecule": "OCc1c[nH]c2ccccc12",
    "result": "0.914 (active)"
  }
]

I need normalized growth for every entry listed below, if you could help.
1. Cc1cc(=O)n(-c2ccccc2)n1C
2. CN(C)C(=N)N=C(N)N
3. Cc1onc(-c2ccccc2Cl)c1C(=O)N[C@@H]1C(=O)N2[C@@H]1SC(C)(C)[C@@H]2C(=O)O
4. NCCc1c[nH]c2ccccc12
5. NCCNCCNCCN
6. Cc1onc(-c2c(Cl)cccc2Cl)c1C(=O)N[C@@H]1C(=O)N2[C@@H]1SC(C)(C)[C@@H]2C(=O)O
7. COc1cc2c(cc1O)CCNC2C (configuration not stated)

["1.01 (inactive)", "1 (inactive)", "1.01 (inactive)", "0.962 (inactive)", "0.977 (inactive)", "0.998 (inactive)", "1 (inactive)"]
